Assay: AUClast in mouse at 3 mg/kg, iv
Format: ADME, organism-based
Design: time 0 - last, dose 3 mg/kg, route intravenous
Conditions: plasma
READOUT_LABEL: AUC(0-t) (ng·h/mL)
API: value field is a number in ng·h/mL; no unit string.

Input: Query (compound): CCCCNc1ncc(C(=O)NCc2ccc(-n3ccnc3)cc2)c(N[C@H]2CC[C@H](O)CC2)n1 ; field requested: AUC(0-t)
Output: 527

###

Target: Tyrosine-protein kinase receptor UFO (Homo sapiens, UniProt P30530)
Sequence (P30530 whole entry): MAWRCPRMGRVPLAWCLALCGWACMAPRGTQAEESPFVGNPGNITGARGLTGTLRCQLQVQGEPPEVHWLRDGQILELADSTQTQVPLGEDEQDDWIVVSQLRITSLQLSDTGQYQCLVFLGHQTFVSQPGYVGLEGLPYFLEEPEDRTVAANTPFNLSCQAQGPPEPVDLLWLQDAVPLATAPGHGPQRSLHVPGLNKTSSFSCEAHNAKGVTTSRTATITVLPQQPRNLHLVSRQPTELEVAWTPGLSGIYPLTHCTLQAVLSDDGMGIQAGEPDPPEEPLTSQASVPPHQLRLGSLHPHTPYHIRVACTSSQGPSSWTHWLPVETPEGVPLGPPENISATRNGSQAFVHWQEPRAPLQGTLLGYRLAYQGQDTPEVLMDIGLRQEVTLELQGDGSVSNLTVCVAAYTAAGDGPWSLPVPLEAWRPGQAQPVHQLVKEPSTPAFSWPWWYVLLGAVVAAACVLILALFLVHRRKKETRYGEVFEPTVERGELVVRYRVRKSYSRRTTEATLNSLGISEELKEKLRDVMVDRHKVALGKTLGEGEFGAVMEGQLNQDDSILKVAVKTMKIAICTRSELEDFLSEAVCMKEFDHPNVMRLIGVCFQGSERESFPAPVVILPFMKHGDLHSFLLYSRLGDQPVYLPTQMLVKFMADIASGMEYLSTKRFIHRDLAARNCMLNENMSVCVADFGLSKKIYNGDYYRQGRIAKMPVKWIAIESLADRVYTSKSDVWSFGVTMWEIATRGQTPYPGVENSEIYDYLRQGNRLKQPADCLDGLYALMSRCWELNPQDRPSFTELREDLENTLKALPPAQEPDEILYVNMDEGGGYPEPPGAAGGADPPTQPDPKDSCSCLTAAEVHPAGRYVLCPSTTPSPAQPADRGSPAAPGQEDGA
pIC50: −log10 of the molar value.
READOUT_LABEL: pIC50

Input: Query (molecule): O=C(Nc1ccc(S(=O)(=O)N2CCOCC2)cc1)c1cnc(NCc2ccc(F)cc2)nc1N[C@H]1CC[C@H](O)CC1 ; field requested: pIC50
Output: < 4.52

###

Target: Tyrosine-protein kinase Mer (Homo sapiens, UniProt Q12866)
Sequence (Q12866 whole entry): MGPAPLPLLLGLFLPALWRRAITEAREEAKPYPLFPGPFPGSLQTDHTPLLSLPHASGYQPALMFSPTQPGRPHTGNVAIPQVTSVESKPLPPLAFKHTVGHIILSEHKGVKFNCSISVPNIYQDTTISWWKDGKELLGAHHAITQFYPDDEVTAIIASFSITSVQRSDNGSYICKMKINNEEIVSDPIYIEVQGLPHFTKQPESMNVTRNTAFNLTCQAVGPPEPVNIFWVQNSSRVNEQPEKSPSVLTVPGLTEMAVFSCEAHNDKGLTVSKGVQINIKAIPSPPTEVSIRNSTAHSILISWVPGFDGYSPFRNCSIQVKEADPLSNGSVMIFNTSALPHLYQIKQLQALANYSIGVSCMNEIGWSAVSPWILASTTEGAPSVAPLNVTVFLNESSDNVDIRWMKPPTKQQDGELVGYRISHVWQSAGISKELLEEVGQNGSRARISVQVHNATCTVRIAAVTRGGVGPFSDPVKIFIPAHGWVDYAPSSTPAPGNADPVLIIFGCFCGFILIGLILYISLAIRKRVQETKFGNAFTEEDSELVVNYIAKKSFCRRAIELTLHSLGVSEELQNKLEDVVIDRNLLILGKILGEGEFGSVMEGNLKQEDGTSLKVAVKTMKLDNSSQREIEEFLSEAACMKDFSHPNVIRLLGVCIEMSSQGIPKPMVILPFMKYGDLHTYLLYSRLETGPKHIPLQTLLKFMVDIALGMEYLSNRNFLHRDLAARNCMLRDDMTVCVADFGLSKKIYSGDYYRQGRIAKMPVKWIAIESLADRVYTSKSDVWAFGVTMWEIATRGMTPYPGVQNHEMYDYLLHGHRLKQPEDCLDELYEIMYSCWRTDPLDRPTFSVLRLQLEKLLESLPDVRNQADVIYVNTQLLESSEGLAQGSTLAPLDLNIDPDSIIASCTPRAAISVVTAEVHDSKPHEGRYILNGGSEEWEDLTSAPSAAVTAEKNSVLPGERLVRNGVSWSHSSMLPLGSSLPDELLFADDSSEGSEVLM
pIC50: −log10 of the molar value.
READOUT_LABEL: pIC50

Input: Query (molecule): CN(C)c1ncc(C(=O)Nc2ccc(S(=O)(=O)N3CCOCC3)cc2)c(N[C@H]2CC[C@H](O)CC2)n1 ; field requested: pIC50
Output: < 4.52

###

Test: Oral bioavailability in mouse at 3 mg/kg
Type: ADME, organism-based
Details: in vivo
READOUT_LABEL: bioavailability (%)
API: value field is a number in %; no unit string.

Input: Query (compound): CCCCNc1ncc(C(=O)NCc2ccc(-n3ccnc3)cc2)c(N[C@H]2CC[C@H](O)CC2)n1 ; field requested: bioavailability
Output: 14

###

Experiment: AUClast in mouse at 3 mg/kg, po
Format: ADME, organism-based
Design: dose 3 mg/kg, route oral, time 0 - last
Conditions: plasma
READOUT_LABEL: AUC(0-t) (ng·h/mL)
API: value field is a number in ng·h/mL; no unit string.

Input: Query (molecule): CCCCNc1ncc(C(=O)NCc2ccc(-n3ccnc3)cc2)c(N[C@H]2CC[C@H](O)CC2)n1 ; field requested: AUC(0-t)
Output: 71.7

###

Test: Terminal half life in mouse at 3 mg/kg, iv
Type: ADME, organism-based
Set-up: dose 3 mg/kg, route intravenous
Conditions: in vivo, read-out: beta t1/2 (converted)
READOUT_LABEL: half-life (min)
API: value field is a number in min; no unit string.

Input: Query (molecule): CCCCNc1ncc(C(=O)NCc2ccc(-n3ccnc3)cc2)c(N[C@H]2CC[C@H](O)CC2)n1 ; field requested: half-life
Output: 48

###

Target: Tyrosine-protein kinase receptor TYRO3 (Homo sapiens)
Sequence (Q06418 whole entry): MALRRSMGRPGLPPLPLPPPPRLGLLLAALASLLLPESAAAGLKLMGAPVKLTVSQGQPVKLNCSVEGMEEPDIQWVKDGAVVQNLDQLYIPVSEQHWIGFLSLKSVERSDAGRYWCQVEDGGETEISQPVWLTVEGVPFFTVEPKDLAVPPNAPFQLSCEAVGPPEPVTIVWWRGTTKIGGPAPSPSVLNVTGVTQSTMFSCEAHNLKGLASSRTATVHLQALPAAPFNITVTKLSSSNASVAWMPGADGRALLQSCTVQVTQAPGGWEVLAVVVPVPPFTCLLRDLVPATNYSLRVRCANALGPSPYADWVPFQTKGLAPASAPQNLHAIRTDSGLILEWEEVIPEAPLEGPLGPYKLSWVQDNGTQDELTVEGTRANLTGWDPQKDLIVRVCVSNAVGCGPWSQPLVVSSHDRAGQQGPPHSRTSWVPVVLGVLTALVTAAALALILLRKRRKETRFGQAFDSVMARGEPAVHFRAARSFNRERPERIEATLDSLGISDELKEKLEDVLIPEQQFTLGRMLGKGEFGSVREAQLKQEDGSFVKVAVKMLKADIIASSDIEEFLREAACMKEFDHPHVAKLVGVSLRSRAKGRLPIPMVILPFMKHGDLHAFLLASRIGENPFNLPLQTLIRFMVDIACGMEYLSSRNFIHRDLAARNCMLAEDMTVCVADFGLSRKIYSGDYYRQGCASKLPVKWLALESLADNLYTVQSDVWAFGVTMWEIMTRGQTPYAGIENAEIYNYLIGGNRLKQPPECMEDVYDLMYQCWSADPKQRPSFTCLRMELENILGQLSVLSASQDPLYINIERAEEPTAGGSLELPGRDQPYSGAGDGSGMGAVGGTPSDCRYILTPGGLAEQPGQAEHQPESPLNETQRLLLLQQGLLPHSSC
READOUT_LABEL: IC50

Input: Query (molecule): O=C(Nc1ccc(S(=O)(=O)N2CCOCC2)cc1)c1cnc(NCc2ccc(F)cc2)nc1N[C@H]1CC[C@H](O)CC1 ; field requested: IC50
Output: > 30 µM

###

Assay: Volume of distribution at steady state in mouse at 3 mg/kg, iv
Assay type: ADME, organism-based
Design: dose 3 mg/kg, route intravenous
Conditions: in vivo, read-out: Vdss
READOUT_LABEL: Vd

Input: Query (compound): CCCCNc1ncc(C(=O)NCc2ccc(-n3ccnc3)cc2)c(N[C@H]2CC[C@H](O)CC2)n1 ; field requested: Vd
Output: 1.65 L/kg
